Tested on: P388 leukemia ip, CD2F1 mice, survival T/C
Experiment: NCI In Vivo Anticancer Drug Screen. Data for tumor model P388 Leukemia (intraperitoneal) in CD2F1 (CDF1) mice
Details: endpoint: median survival time; dose: 25.0 mg/kg/injection; schedule: Q01DX005 (ip); vehicle: Klucel (hydroxypropylcellulose) (HPC); higher = longer survival
Toxic doses and inconclusive results are not listed.
Answer each item with its documented T/C.

Reported T/C for CC(=O)Nc1nc(Cl)c2ncn(C3CC(OC(=O)c4ccc(C)cc4)C(COC(=O)c4ccc(C)cc4)O3)c2n1 (stereo not given) was 90 % of control

Reported T/C for C1CC2CC1CC2CNCC1CC2CCC1C2 (stereo not given) was 103 % of control

Reported T/C for `CCNc1nc(NC(C)C)nc(-c2ccncc2)n1` was 96 % of control

Reported T/C for `Cc1cc2nc(-c3cc4cc(Cl)cc(Cl)c4oc3=O)[nH]c2cc1C` was 98 % of control

Reported T/C for `[Br][Sn]([Br])([CH2]CC[CH2][Sn]([Br])([Br])[c]1ccccc1)[c]1ccccc1` was 117 % of control

Reported T/C for O=c1ccn(C2OC(COC(c3ccccc3)(c3ccccc3)c3ccccc3)C(OC(c3ccccc3)(c3ccccc3)c3ccccc3)C2O)c(=O)[nH]1 (stereo not given) was 99 % of control

Reported T/C for C=C(C1=CC(=O)C(C)=C(OC(=O)C2(C)OC2C)C1=O)C(CC=C(C)C)OC(=O)/C(C)=C/C (stereo not given) was 99 % of control

Reported T/C for CN(C)c1ncnc2c1ncn2C1CCCCO1 (stereo not given) was 105 % of control

Reported T/C for `O=C(Nc1ccccc1)C1(c2ccccc2)CCCCC1` was 101 % of control

Please examine the following record next.
Reported T/C for `CC(C)(C)c1cc(C#CC#Cc2cc(C(C)(C)C)cc(C(C)(C)C)c2)cc(C(C)(C)C)c1` was 86 % of control
